Can you tell me % Inhibition for the items I'm about to list?
- Tested on: Plasmodium falciparum
- protocol_text: Confirmatory screen in NF54 pLDH assay, in single point, at 2uM, 72h
- Format: functional, Erythrocyte
- assay_setup: timepoint 72 hour
Screen size: about 4,800 compounds; about 410 (8.5%) showed an effect of 50% or more. The full list was thinned out, with strong results kept by preference.
Numbers only, in %.

For orientation, consider the following solved cases.
{"columns": ["molecule", "target", "reported_measurement"],
 "data": [
  ["COc1cccc(CNCCN2CCOCC2)c1OCc1ccc(Cl)cc1Cl", "Plasmodium falciparum", 11],
  ["Cc1cc(C(=O)N2CCC3(CCNCC3)CC2)ccc1F", "Plasmodium falciparum", 7],
  ["C=CCNC(=NC)NC1CCN(c2cc(OC)cc(OC)c2)CC1", "Plasmodium falciparum", 7],
  ["OCCNCc1ccc(Cl)cc1Cl", "Plasmodium falciparum", 6]
]}

For each of the molecules below, state % Inhibition.
1. Cc1ccc(S(=O)(=O)N(CC(=O)NC2CCN(C)CC2)c2cccc(Cl)c2)cc1
2. O=c1[nH]cnc2c1nc(N1CCCCC1)n2C1OC(CO)C(O)C1O (stereo not drawn)

Ans.
2
3

====

- Test system: Plasmodium falciparum
- protocol_text: Confirmatory screen in NF54 pLDH assay, in single point, at 2uM, 72h
- Format: functional, Erythrocyte
- assay_setup: timepoint 72 hour
Out of some 4,800 compounds screened, about 410 (8.5%) showed an effect of 50% or more. The list comes from a sample in which strong results are over-represented; it also holds close analogues and randomly drawn compounds.
Hi there, I'd appreciate the recorded % Inhibition for every entry that follows.
One number for each entry, in %.

These solved cases illustrate the format of a correct answer.
{"columns": ["molecule", "% Inhibition [%]"],
 "data": [
  ["Cc1cc2nc(C)c(=O)n(Cc3ccc(C(=O)NCc4ccco4)cc3)c2cc1C", 8],
  ["Cc1ccc(S(=O)(=O)N2CC(C)N(C(=O)N3CCOCC3)C2C)cc1 (stereo unspecified)", 14],
  ["CC(C)c1cc(CN(Cc2cc(C(C)C)c(O)c(C(C)C)c2)C2CCCCC2)cc(C(C)C)c1O", 98],
  ["CC12CN(S(=O)(=O)c3ccc4c(c3)OCCO4)C3(C(=O)OCc4ccccc4)CC1CCC23C (stereo unspecified)", 64]
]}

Dear colleague, could you send me % Inhibition for each of the items below? Thanks.
1. CCc1nn(C)cc1CN(Cc1cccc(O)c1)C1CCC(O)CC1 (stereo unspecified)
2. Cc1ccc(CN(C)C2CCCCC2)o1

Ans.
[-8, -12]

====

- System: Plasmodium falciparum
- protocol_text: Confirmatory screen in NF54 pLDH assay, in single point, at 2uM, 72h
- Assay type: functional, Erythrocyte
- assay_setup: timepoint 72 hour
Among all 4,800 compounds or so, about 410 (8.5%) showed an effect of 50% or more. The full list was thinned out, with strong results kept by preference.
Please provide measured % Inhibition for the entries that follow.
One number for each entry, in %.

Past entries and their recorded results:
{"columns": ["molecule", "target", "% Inhibition / %"],
 "data": [
  ["CC1CCC2(CC1)N=C(c1ccccc1)C(=O)N2CC(=O)N[C@H]1CCc2ccccc21 (stereo partly drawn)", "Plasmodium falciparum", -4],
  ["CC(C)CN1C(=O)CC[C@@H](C(=O)NCCCN2CCOCC2)[C@@H]1c1cccnc1", "Plasmodium falciparum", -17],
  ["Nc1ccccc1-c1nc(Nc2ncccn2)n[nH]1", "Plasmodium falciparum", 7],
  ["COc1ccnc(CN2CCC[C@H](c3nc(-c4ccccc4)c[nH]3)C2)c1OC", "Plasmodium falciparum", 82],
  ["CC(C)(C)CC(=O)Nc1ccccc1C(N)=O", "Plasmodium falciparum", 13]
]}

List the reported % Inhibition of each molecule below.
1. COCCN(CC1CN(Cc2ccccc2OC)CC1c1ccccc1OC)C(=O)COC (stereo not drawn)
2. Cc1ccc(-c2ccc(CN(CC(=O)NCC(=O)O)C(C)C)s2)cc1
3. CN(C)c1nc(CN2CCC[C@H](c3n[nH]c(-c4ccccc4)n3)C2)ns1
4. CCNS(=O)(=O)c1cc(C)ccc1C
5. CC1CCCN(C2(N3CCCC(C)C3)C(=O)Nc3ccc(F)cc32)C1 (stereo not drawn)
6. CC(C)C1(C)CC(=O)N(C(C(=O)O)c2ccccc2)C1=O (stereo not drawn)
7. COc1ccc([C@@H]2C(C#N)(C#N)C23C(=O)CC(C)(C)CC3=O)cc1
8. C=CCN(CC=C)S(=O)(=O)c1ccc(S(=O)(=O)NC)cc1

Ans.
1. 0
2. 13
3. 2
4. 8
5. 19
6. -6
7. -12
8. -10

Take each entry in turn and give its % Inhibition.
1. O=C1CCN(C(=O)COc2ccc(-c3ccccc3)cc2Cl)CCN1
2. CCC1(CC)NC(=O)N(CC(=O)Nc2cccc(CC(=O)OC)n2)C1=O
3. Cc1cccc2[nH]cc(CCNC(=O)N3CCC4CCC(C3)N4C)c12 (stereo not drawn)
4. O=C(C[C@H]1CCOC1)Nc1cc2ccc(Br)cn2n1
5. Cc1cc2n(n1)C(C(F)(F)F)CCN2C(=O)C(C)N1C(=O)C2CCCCC2C1=O (stereo not drawn)
6. COCc1cc(F)ccc1NC(=O)NC1CCN(c2cc(C)nc(C)n2)CC1
7. Cc1ccc(C)c(-n2cnc(=O)n2[C@H]2CCN(C3CC3)C2=O)c1
8. Cc1noc(OCCc2ccccc2)n1

Ans.
[-12, -20, 11, 11, 4, 5, 51, 11]

Provide the reported % Inhibition of each entry below, same order.
1. CCOc1ccc(C2C(C(=O)O)CCC(=O)N2C2CCCCC2)cc1 (stereo not drawn)
2. CC(C)c1c2cc3c(cc2nn1-c1ccccc1)OCCO3

Ans.
1. 10
2. -11

====

- Tested on: Plasmodium falciparum
- protocol_text: Confirmatory screen in NF54 pLDH assay, in single point, at 2uM, 72h
- Type: functional, Erythrocyte
- assay_setup: timepoint 72 hour
The campaign covered roughly 4,800 compounds. About 410 (8.5%) showed an effect of 50% or more. For the sample, strong results were picked, then their nearest neighbours and some compounds at random.
For each entry below, report its % Inhibition value.
One number for each entry, in %.

Reference set, count: 3
{"columns": ["input_smiles", "reported_measurement"],
 "data": [
  ["O=C(NCc1ccco1)c1ccc2c(c1)OCO2", -7],
  ["O=C(Nc1c(S(=O)(=O)c2ccccc2)c2nc3ccccc3nc2n1CCc1ccccc1)c1ccc(Cl)cc1", 96],
  ["CCNc1ccnc(NCc2nc(-c3cccc(F)c3)c(-c3ccccn3)[nH]2)n1", 22]
]}

Below are some compounds; for each one, tell me its % Inhibition.
1. O=C(Nc1ccccc1)c1ccc2c(c1)C(=O)N(CCc1ccccc1)C2=O
2. Cc1cccc([C@@H](NC(=O)Nc2ncco2)C(F)(F)F)c1
3. Cc1ccc(S(=O)(=O)Nc2c(S(=O)(=O)c3ccccc3)c3nc4ccccc4nc3n2CCc2ccccc2)cc1
4. Cc1ccc(S(=O)(=O)Nc2c(S(=O)(=O)c3ccc(C)cc3)c3nc4ccccc4nc3n2CCC(C)C)cc1
5. COCCCn1c(NS(=O)(=O)c2ccccc2)c(S(=O)(=O)c2ccc(C)cc2)c2nc3ccccc3nc21

Ans.
1. -15
2. -15
3. 100
4. 100
5. 49

Qu. Quick one: % Inhibition for `COc1ccc(-c2noc([C@H](C)NC(=O)N3CCNC(=O)C3)n2)cc1OC` ?
Ans. 6

====

- Test system: Plasmodium falciparum
- protocol_text: Confirmatory screen in NF54 pLDH assay, in single point, at 2uM, 72h
- Assay type: functional, Erythrocyte
- assay_setup: timepoint 72 hour
The whole screen tested about 4,800 compounds, of which about 410 (8.5%) showed an effect of 50% or more. The entries come from a sample that favours strong results as a whole.
readout_kind: % Inhibition (%)
Answers are plain numbers, in %.

Example cases with answers are listed next.
{"columns": ["compound", "readout_unit", "% Inhibition"],
 "data": [
  ["c1ccc(Nc2nc(-c3ccccc3)cc(-c3ccccc3)n2)cc1", "%", 5],
  ["Cc1cccn2cc(CN(C)[C@H](c3ccccn3)C3CC3)nc12", "%", 4],
  ["CC1=NN(c2ncc(C(F)(F)F)cc2Cl)C(=O)c2ccccc2O1", "%", 6],
  ["Cc1nc(C(=O)Nc2[nH]c(=O)ncc2F)c(-c2ccccc2)o1", "%", 70],
  ["Cc1ccccc1S(=O)(=O)N1CCN(c2c(C)n(-c3ccccc3)c(=O)n(CC(C)C)c2=O)CC1", "%", 14],
  ["Cc1ccc(/C=C(\\C(=O)NC[C@H]2CCCO2)n2ccccc2=O)cc1", "%", 12],
  ["O=C1Nc2ccc(Br)cc2C1=O", "%", 13],
  ["Cc1cc(C(=O)Nc2ccc3ccccc3c2)co1", "%", -3]
]}

# map each compound to its % Inhibition
1. CC(C)c1ccc2ncnc(N[C@H]3CCc4[nH]cnc4C3)c2c1
2. COc1ccc(-c2cc(C(=O)N[C@H]3CCN(c4ccc(=O)n(C)n4)C3)c(C)n2C)cc1
3. Cc1ccc(-c2cc(C(=O)Nc3nnc(C(C)C)s3)no2)cc1F
4. COc1ccc(-c2cc(C(=O)N[C@H]3CCN(c4ccc(=O)[nH]n4)C3)c(C)n2C)cc1
5. C[N+]12CCCCC1C(OC(=O)C1(c3ccccc3)CCCC1)CCC2 (stereo not drawn)
6. CC(C)c1nc(C(=O)Nc2[nH]c(=O)ncc2F)cs1
7. CCOc1cccc(NCc2c(N)ncnc2OC)c1
8. Cc1cnc(C2CCN(C(=O)[C@@H]3CNC(=O)O3)CC2)s1

Ans.
101
41
16
58
60
83
13
2

Please look at the items below and tell me % Inhibition for each one, in order.
1. COc1cccc(-n2c(C)cc(C(=O)N3CCNC(=O)CC3)c2C)c1
2. CC(C)N(CC(=O)Nc1nccs1)Cc1ccccn1

Ans.
[-5, 59]

Each compound below has a reported value. Please supply its % Inhibition.
1. O=S(=O)(c1ccc(Cl)cc1)n1ccc(C2CC2)n1
2. COc1cc2c(cc1Cl)-n1cccc1C1(CCNCC1)N2
3. Cc1ccc(Nc2c(-c3cc4ccccc4cc3O)nc3ncccn23)cc1
4. CCOc1cccc2c1OC1(C)C(C(=O)Nc3ccc(C)cc3C)C2NC(=O)N1c1ccccc1 (stereo not drawn)
5. CC(=O)N1c2c(C)cccc2[C@@H](C)CC1(C)C

Ans.
4
-15
6
-7
16
